Values were extracted from PubChem BioAssay (NCI).

Tested on: TK-10 renal
experiment-summary: NCI tumour cell line growth inhibition, 48 h
Hi there, I'd appreciate the recorded GI50 for every entry that follows.

Fill blank: measured GI50 of the compound CNCc1cccc2c1OCCOCCN(C)C(=O)CN(C)S(=O)(=O)c1ccc(cc1)-c1cnc(N)c(n1)C(=O)N2 is ____.
2.71 µM

Fill blank: measured GI50 of the compound C[n+]1c(/C=C\C=C\N2CCCCC2)sc2ccccc21 is ____.
2.19 µM

Fill blank: measured GI50 of the compound Cc1c2cnccc2c(C)c2c1c1cc(C3OCCCO3)ccc1n2C is ____.
0.541 µM

Fill blank: measured GI50 of the compound CCCN(CCC)CCCNCc1cc(I)cc(C)c1O is ____.
16.1 µM

Fill blank: measured GI50 of the compound COc1cccc2c1C(=O)c1c(O)c3c(c(O)c1C2=O)CC(O)(C(C)=O)CC3OC1CC(N)C(O)C(C)O1 (configuration not stated) is ____.
0.273 mg/L

Fill blank: measured GI50 of the compound O=[N+]([O-])c1ccc(Nc2ccccc2-c2ccccc2)c2nonc12 is ____.
22.8 µM

Fill blank: measured GI50 of the compound COc1ccc(-c2[nH]ncc2-c2cc3c(c(OC)c2)OCC(=O)N3)cc1 is ____.
7.59 µM

Fill blank: measured GI50 of the compound CC(C)(C)OC(=O)NCCNC1=CC(=O)c2nc3ccccc3c3ccnc1c23 is ____.
32.4 µM

Fill blank: measured GI50 of the compound O=C(/C=C/c1ccc(B(O)O)cc1)/C=C/c1ccc(B(O)O)cc1 is ____.
5.12 µM

Fill blank: measured GI50 of the compound Cc1[nH]ncc1-c1cc2nc(C3CC4CCN3CC4)[nH]c(=O)c2s1 (configuration not stated) is ____.
1.9 µM

Fill blank: measured GI50 of the compound COc1cc2c(cc1OCCCN1CCN(CCCOc3cc4c(cc3OC)C(=O)N3CCC[C@H]3C=N4)CC1)C=CC(C)(C)O2 is ____.
1.46 µM

Fill blank: measured GI50 of the compound CC1=C([Se]CC(OC(=O)[C@@H](CSSC(C)(C)C)NC(=O)OC(C)(C)C)C(=O)NC(C)(C)C)C(=O)c2ccccc2C1=O (some centres not stated) is ____.
1.6 µM

----------
Tested on: MDA-N
experiment-summary: NCI tumour cell line growth inhibition, 48 h
measured-property: TGI

Fill blank: measured TGI of the compound C=CCC1(O)c2ccccc2C(=O)c2c(O)ccc(O)c21 (stereo not drawn) is ____.
5.15 µM

Fill blank: measured TGI of the compound Cc1ccc(NCCCN2CCN(CCCNc3ccc(C)c4sc5ccccc5c(=O)c34)CC2)c2c(=O)c3ccccc3sc12 is ____.
> 100 µM

Fill blank: measured TGI of the compound O=C(O)CSCc1cccc2ccccc12 is ____.
> 100 µM

Fill blank: measured TGI of the compound O=C1c2c(F)c(F)c(F)c(F)c2SC2=NCCN12 is ____.
11.9 µM

Fill blank: measured TGI of the compound C1CC2=C(C1)[Se]C(=C1Sc3nsnc3S1)[Se]2 is ____.
62 µM

Fill blank: measured TGI of the compound O=c1c2ccccc2oc2nc3n(c(=O)c12)CCCS3 is ____.
> 100 µM

Fill blank: measured TGI of the compound Cc1ccc(S(=O)(=O)c2scc(-c3ccccc3)c2C)cc1 is ____.
> 100 µM

Fill blank: measured TGI of the compound Nc1nc2c(=O)c3ccccc3sc2s1 is ____.
> 100 µM

Fill blank: measured TGI of the compound C1=C\SS/C=C\SS/C=C\SS/C=C\SS/1 is ____.
> 100 µM

Fill blank: measured TGI of the compound Clc1ccc(-c2ccc(-c3nnc(CCc4nnc(-c5ccc(-c6ccc(Cl)cc6)o5)o4)o3)o2)cc1 is ____.
> 100 µM

Fill blank: measured TGI of the compound CC(=O)NC1C(OCc2ccccc2)OC(CO)C(O)C1OCC(=O)NC(C)C(=O)NC(CCC(=O)NCCCCNc1ccc([N+](=O)[O-])c2[nH]c3ccccc3c(=O)c12)C(N)=O (stereo not drawn) is ____.
> 100 µM

Fill blank: measured TGI of the compound O=C1Oc2ccccc2C(=O)/C1=C/N1C(=O)N/C(=C\c2ccccc2O)C1=O is ____.
> 100 µM

Fill blank: measured TGI of the compound CN(C)CCNc1ccc(C(=O)NCCCN(C)CCCNC(=O)c2ccc(NCCN(C)C)c3c(=O)c4ccccc4[nH]c23)c2[nH]c3ccccc3c(=O)c12 is ____.
0.583 µM

Fill blank: measured TGI of the compound COC(=O)c1cn(CCCC(=O)O)nn1 is ____.
> 100 µM

Fill blank: measured TGI of the compound O=C(Cc1ccccc1)NCCc1ccc(O)c(O)c1 is ____.
34.9 µM

Fill blank: measured TGI of the compound CN1C(=O)c2c(ccc3c2OCO3)C2C(O)Cc3cc4c(cc3C21)OCO4 (stereo not drawn) is ____.
5.56 µM

Fill blank: measured TGI of the compound Cc1nc2c(=S)[nH]ncc2[nH]1 is ____.
> 100 µM

Fill blank: measured TGI of the compound O=C(O)c1ccccc1.[Ag] is ____.
19.2 µM

Fill blank: measured TGI of the compound C=C(C)[C@@H]1CC[C@]2(C(=O)O)CC[C@]3(C)[C@H](CC[C@@H]4[C@@]5(C)CC(=O)C(C)(C)[C@@H]5CC[C@]43C)[C@@H]12 is ____.
> 25 µM

Fill blank: measured TGI of the compound CN(C)c1nc2sc3c(c2c(=O)o1)CCCC3 is ____.
> 100 µM

Fill blank: measured TGI of the compound COc1ccc(-c2nc(N)c(C#N)c3c2CCS(=O)(=O)c2ccc(C)cc2-3)cc1OC is ____.
51 µM

Fill blank: measured TGI of the compound CCOC(=O)c1ccc(N=NN(C)C(=O)C(C)N)cc1 (stereo not drawn) is ____.
> 100 µM

Fill blank: measured TGI of the compound COc1ccc2oc(=N)c(C(=O)Nc3cccc4ccccc34)cc2c1 is ____.
18.8 µM

----------
Hi there, I'd appreciate the recorded TGI for every entry that follows.
Tested on: NCI-H460 lung
experiment-summary: NCI tumour cell line growth inhibition, 48 h
# unit: µM | format: bare number

Fill blank: measured TGI of the compound CC1=C([Se]CC(OC(=O)[C@@H](CSSC(C)(C)C)NC(=O)OC(C)(C)C)C(=O)NC(C)(C)C)C(=O)c2ccccc2C1=O (stereo not given in full) is ____.
1.32

Fill blank: measured TGI of the compound FC(F)(F)C1(Cl)C(c2ccccc2)=C1c1ccccc1 is ____.
30.4

Fill blank: measured TGI of the compound C=C1C(=O)O[C@H]2[C@H]1CC/C(CNC(=O)/C=C/c1ccc(Br)cc1)=C\CC[C@@]1(C)O[C@@H]21 is ____.
3.3

Fill blank: measured TGI of the compound Cn1cnc([N+](=O)[O-])c1Sc1nc2cc(Cl)c(F)cc2[nH]1 is ____.
27.7

Fill blank: measured TGI of the compound CCCN(CCC)CCCNCc1cc(I)cc(C)c1O is ____.
26

Fill blank: measured TGI of the compound O=C(/C=C/c1ccc(B(O)O)cc1)/C=C/c1ccc(B(O)O)cc1 is ____.
23.6

Fill blank: measured TGI of the compound CCOC(=O)c1cccc(NC(=O)CCl)c1 is ____.
5.37

Fill blank: measured TGI of the compound CC(C)(C)OC(=O)NCCNC1=CC(=O)c2nc3ccccc3c3ccnc1c23 is ____.
43.1

----------
System: MDA-N
experiment-summary: NCI tumour cell line growth inhibition, 48 h
Hi there, I'd appreciate the recorded TGI for every entry that follows.

Fill blank: measured TGI of the compound Cc1ccc(C)n1-c1ccccc1C1SCCCS1 is ____.
> 100 µM

Fill blank: measured TGI of the compound COC(=O)N1CC2(CO)C3CC=C(C(=O)Nc4ccccc4Br)C2C1C3Br (stereo unspecified) is ____.
> 50 µM

Fill blank: measured TGI of the compound CCOC(=O)c1cnc(-n2[nH]c(C)c(CCO)c2=O)[nH]c1=O is ____.
> 100 µM

Fill blank: measured TGI of the compound COc1c2cc([N+](=O)[O-])cc1CNC(=O)CN1CCOCCOCCN(CCOCCOCC1)CC(=O)NC2 is ____.
> 100 µM

Fill blank: measured TGI of the compound COC(=O)c1c2c(cc3c1CC1(Cc4ccccc4C1=O)C3)CCC2 (stereo unspecified) is ____.
34.2 µM

Fill blank: measured TGI of the compound CC1=NN(C(=O)c2ccccc2O)C(=O)/C1=C/c1ccc([N+](=O)[O-])cc1 is ____.
> 100 µM

----------
Hi there, I'd appreciate the recorded TGI for every entry that follows.
Test system: MOLT-4 leukemia
experiment-summary: NCI tumour cell line growth inhibition, 48 h
# unit: µM | format: bare number

Fill blank: measured TGI of the compound Clc1ccc2c(SCC3CO3)c3ccccc3nc2c1 (stereo unspecified) is ____.
4.3

Fill blank: measured TGI of the compound CC1=NN(c2nc(N)nc(-c3ccccc3S(N)(=O)=O)n2)C(C)(C)C1 is ____.
79.8

Fill blank: measured TGI of the compound O=C(CSCC(=O)N/N=C/c1cc(I)cc(I)c1O)N/N=C/c1cc(I)cc(I)c1O is ____.
29.2
